conditions: in methanol, 300.15 K
readout name: solubility (mole fraction)
// return a plain number; no unit text

Query :: Which solubility (mole fraction) is listed for "O=C1NC(=O)c2ccccc21" ?
Result :: 0.00288

---

conditions: in methanol, 310.65 K
readout name: solubility (mole fraction)
// return a plain number; no unit text

Query :: Which solubility (mole fraction) is listed for "O=C1NC(=O)c2ccccc21" ?
Result :: 0.00405

---

details: in isopropanol, 313.15 K
readout name: solubility (mole fraction)

Query :: Which solubility (mole fraction) is listed for "O=C1NC(=O)c2ccccc21" ?
Result :: 0.00523

---

conditions: in acetone, 318.15 K
readout name: solubility (mole fraction)

Query :: Which solubility (mole fraction) is listed for "O=C1NC(=O)c2ccccc21" ?
Result :: 0.0221

---

details: in acetonitrile, 283.15 K
readout name: solubility (mole fraction)
// return a plain number; no unit text

Query :: Which solubility (mole fraction) is listed for "O=C1NC(=O)c2ccccc21" ?
Result :: 0.00145

---

conditions: in n-butanol, 300.15 K
readout name: solubility (mole fraction)
// return a plain number; no unit text

Query :: Which solubility (mole fraction) is listed for "O=C1NC(=O)c2ccccc21" ?
Result :: 0.00308

---

details: in ethanol, 285.65 K
readout name: solubility (mole fraction)
// return a plain number; no unit text

Query :: Which solubility (mole fraction) is listed for "O=C1NC(=O)c2ccccc21" ?
Result :: 0.00133

---

details: in methanol, 293.15 K
readout name: solubility (mole fraction)
// return a plain number; no unit text

Query :: Which solubility (mole fraction) is listed for "O=C1NC(=O)c2ccccc21" ?
Result :: 0.0021

---

conditions: in methanol, 298.15 K
readout name: solubility (mole fraction)
// return a plain number; no unit text

Query :: Which solubility (mole fraction) is listed for "O=C1NC(=O)c2ccccc21" ?
Result :: 0.0026

---

details: in acetonitrile, 303.15 K
readout name: solubility (mole fraction)
// return a plain number; no unit text

Query :: Which solubility (mole fraction) is listed for "O=C1NC(=O)c2ccccc21" ?
Result :: 0.00385

---

details: in ethanol, 313.15 K
readout name: solubility (mole fraction)
// return a plain number; no unit text

Query :: Which solubility (mole fraction) is listed for "O=C1NC(=O)c2ccccc21" ?
Result :: 0.00462

---

conditions: in acetone, 288.15 K
readout name: solubility (mole fraction)

Query :: Which solubility (mole fraction) is listed for "O=C1NC(=O)c2ccccc21" ?
Result :: 0.00935

---

conditions: in acetonitrile, 298.15 K
readout name: solubility (mole fraction)
// return a plain number; no unit text

Query :: Which solubility (mole fraction) is listed for "O=C1NC(=O)c2ccccc21" ?
Result :: 0.00305

---

conditions: in isobutanol, 308.15 K
readout name: solubility (mole fraction)
// return a plain number; no unit text

Query :: Which solubility (mole fraction) is listed for "O=C1NC(=O)c2ccccc21" ?
Result :: 0.0034

---

conditions: in methanol, 288.15 K
readout name: solubility (mole fraction)

Query :: Which solubility (mole fraction) is listed for "O=C1NC(=O)c2ccccc21" ?
Result :: 0.00162

---

conditions: in methanol, 318.15 K
readout name: solubility (mole fraction)

Query :: Which solubility (mole fraction) is listed for "O=C1NC(=O)c2ccccc21" ?
Result :: 0.00525

Reference source: BigSolDB 2.1
